# target_of_assay: Yer064c (UniProt P40041)
# Sequence: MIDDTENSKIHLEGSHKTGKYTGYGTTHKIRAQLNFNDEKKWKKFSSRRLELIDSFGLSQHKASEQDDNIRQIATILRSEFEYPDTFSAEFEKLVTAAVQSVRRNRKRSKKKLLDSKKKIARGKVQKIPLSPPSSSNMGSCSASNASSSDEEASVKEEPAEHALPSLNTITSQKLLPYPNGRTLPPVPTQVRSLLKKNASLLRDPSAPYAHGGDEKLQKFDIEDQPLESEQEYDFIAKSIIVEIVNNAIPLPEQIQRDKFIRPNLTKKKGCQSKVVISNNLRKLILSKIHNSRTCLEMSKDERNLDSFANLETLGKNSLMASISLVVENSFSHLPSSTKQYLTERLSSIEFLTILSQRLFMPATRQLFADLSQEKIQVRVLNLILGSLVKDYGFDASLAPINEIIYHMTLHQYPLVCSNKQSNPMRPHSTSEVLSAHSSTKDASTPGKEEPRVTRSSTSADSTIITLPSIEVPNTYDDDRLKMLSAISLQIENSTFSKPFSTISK
# assay_comment: PBM E-score (8-mer binding enrichment) (E-score (-0.5 to 0.5)); higher = stronger / more preferred TF binding
# conditions: protein concentration: 200 nM; construct: GST-full length
In all, about 33,000 sequences were measured (“E-score (-0.5 to 0.5)”: median about -0.036, highest 2% from about 0.37 on). Shown is part of a subset that was picked to be rich in the highest values.
Consider the reported PBM E-score of an entry and match it to a band in c1 = under 0.07, c2 = from 0.07 up to 0.4, c3 = 0.4 and over

These solved cases illustrate the format of a correct answer.
Inquiry: GET /class?item= ATTACTCA
Reply text: c2

Inquiry: Into which category would you place AGAGTCCA ?
Reply text: c2

Inquiry: Hi, small favor: classify GGTGATAA by its PBM E-score when you get a moment.
Reply text: c1

Inquiry: Assign a category based on measured PBM E-score for CACGACTC and give only the class name.
Reply text: c3

Inquiry: Which category does the recorded PBM E-score put GGTACTTA in?
Reply text: c1

Please examine the following record next.
Inquiry: Band assignment needed for AGTACTCG please.
Reply text: c2

* * *

# target_of_assay: Yer064c (UniProt P40041)
# Sequence: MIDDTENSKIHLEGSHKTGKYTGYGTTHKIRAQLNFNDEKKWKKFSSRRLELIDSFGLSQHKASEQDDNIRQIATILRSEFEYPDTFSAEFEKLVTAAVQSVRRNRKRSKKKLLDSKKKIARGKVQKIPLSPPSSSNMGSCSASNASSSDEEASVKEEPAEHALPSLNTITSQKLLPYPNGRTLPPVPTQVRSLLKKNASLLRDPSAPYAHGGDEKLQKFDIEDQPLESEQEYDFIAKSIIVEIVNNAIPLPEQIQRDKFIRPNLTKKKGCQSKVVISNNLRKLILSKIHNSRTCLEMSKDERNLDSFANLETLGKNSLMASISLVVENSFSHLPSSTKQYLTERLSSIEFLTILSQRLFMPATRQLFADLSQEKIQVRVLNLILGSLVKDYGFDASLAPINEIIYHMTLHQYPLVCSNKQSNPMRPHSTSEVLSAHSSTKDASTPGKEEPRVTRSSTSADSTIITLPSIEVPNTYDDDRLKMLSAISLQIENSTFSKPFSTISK
# assay_comment: PBM E-score (8-mer binding enrichment) (E-score (-0.5 to 0.5)); higher = stronger / more preferred TF binding
# conditions: protein concentration: 200 nM; construct: GST-full length
The full ranking holds about 33,000 sequences; the median of “E-score (-0.5 to 0.5)” is about -0.036, and the highest 2% start at about 0.37. The full list was thinned out, with the highest values kept by preference.
// Criterion not met strictly below 0.03 in PBM E-score; Criterion met otherwise

The examples below pair each entry with its known result.
Inquiry: Does PBM E-score meet or surpass 0.03 for ACTCACGG ?
Reply text: Criterion met

Inquiry: Does the sequence ACCACTTG have recorded PBM E-score that is 0.03 or more?
Reply text: Criterion not met

Inquiry: Can CCTAATCG be said to have PBM E-score at or above 0.03?
Reply text: Criterion met

Inquiry: API: above_or_equal(metric=PBM E-score, cutoff=0.03) for item GGCAGTAA
Reply text: Criterion not met

---
Inquiry: Check if PBM E-score >= 0.03 (inclusive). Item: GCTAATTA
Reply text: Criterion met

Inquiry: Has ACCCTATG a recorded PBM E-score greater than or equal to 0.03?
Reply text: Criterion met

Inquiry: Given the entry CTATCGGC , answer whether its PBM E-score meets or surpasses 0.03.
Reply text: Criterion not met

Inquiry: Confirm if PBM E-score reported for the sequence ACTAATCT is 0.03 or above.
Reply text: Criterion met

Inquiry: Answer whether PBM E-score of GCTAATCC is greater than or equal to 0.03.
Reply text: Criterion not met

Inquiry: Please check the record AGCGCTGG and state if its PBM E-score is at or above 0.03.
Reply text: Criterion met

Inquiry: Exam item: decide whether the reported PBM E-score for AGGTCATA is at least 0.03.
Reply text: Criterion met

* * *

# target_of_assay: Yer064c (UniProt P40041)
# Sequence: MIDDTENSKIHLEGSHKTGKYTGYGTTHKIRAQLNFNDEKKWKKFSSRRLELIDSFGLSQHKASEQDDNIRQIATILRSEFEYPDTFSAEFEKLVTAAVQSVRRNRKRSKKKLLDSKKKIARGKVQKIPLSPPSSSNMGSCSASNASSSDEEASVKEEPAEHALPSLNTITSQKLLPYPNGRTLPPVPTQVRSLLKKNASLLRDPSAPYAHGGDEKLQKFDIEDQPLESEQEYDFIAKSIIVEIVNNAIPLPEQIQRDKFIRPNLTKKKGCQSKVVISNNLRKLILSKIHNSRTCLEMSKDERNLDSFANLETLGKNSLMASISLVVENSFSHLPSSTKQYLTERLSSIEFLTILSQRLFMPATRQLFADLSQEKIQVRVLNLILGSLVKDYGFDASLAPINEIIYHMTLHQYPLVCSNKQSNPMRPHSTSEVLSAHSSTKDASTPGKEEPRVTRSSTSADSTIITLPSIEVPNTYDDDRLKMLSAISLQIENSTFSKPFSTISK
# assay_comment: PBM E-score (8-mer binding enrichment) (E-score (-0.5 to 0.5)); higher = stronger / more preferred TF binding
# conditions: protein concentration: 200 nM; construct: GST-full length
Over roughly 33,000 sequences, “E-score (-0.5 to 0.5)” has its median near -0.036; the highest 2% begin near 0.37. The sample as a whole holds a higher share of the highest values than the screen did.
The sequences listed here are annotated with their PBM E-score.

Inquiry: Form field - read-out: PBM E-score; system: Yer064c (UniProt P40041); submitted item: CGACTATC
Reply text: 0.359

Inquiry: Lab request: please report PBM E-score under test system Yer064c (UniProt P40041) for ACTACTCT
Reply text: 0.239

Inquiry: Could you share what PBM E-score was measured for GCGACTTA , tested on Yer064c (UniProt P40041)?
Reply text: 0.266

Inquiry: Give recorded PBM E-score with Yer064c (UniProt P40041) for the following sequence: ACAACTCT
Reply text: 0.175

* * *

# target_of_assay: Yer064c (UniProt P40041)
# Sequence: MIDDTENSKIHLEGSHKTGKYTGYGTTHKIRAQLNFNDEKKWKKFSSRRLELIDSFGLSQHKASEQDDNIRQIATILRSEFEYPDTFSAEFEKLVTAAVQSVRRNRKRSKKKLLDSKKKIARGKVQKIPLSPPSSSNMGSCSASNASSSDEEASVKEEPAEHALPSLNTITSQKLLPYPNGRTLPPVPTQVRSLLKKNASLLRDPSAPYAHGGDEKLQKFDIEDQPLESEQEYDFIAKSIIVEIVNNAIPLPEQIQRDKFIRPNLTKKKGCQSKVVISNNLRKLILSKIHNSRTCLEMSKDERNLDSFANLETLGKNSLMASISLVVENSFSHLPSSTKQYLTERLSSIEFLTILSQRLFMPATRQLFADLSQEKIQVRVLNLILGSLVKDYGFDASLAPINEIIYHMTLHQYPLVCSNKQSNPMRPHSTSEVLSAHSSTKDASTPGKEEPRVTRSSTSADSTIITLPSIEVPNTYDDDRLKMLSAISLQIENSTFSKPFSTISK
# assay_comment: PBM E-score (8-mer binding enrichment) (E-score (-0.5 to 0.5)); higher = stronger / more preferred TF binding
# conditions: protein concentration: 200 nM; construct: GST-full length
Whole data set: some 33,000 sequences, median “E-score (-0.5 to 0.5)” near -0.036, cut for the highest 2% near 0.37. This excerpt belongs to a sample that is enriched for the highest values.
parameter_measured: PBM E-score
Number, no unit, nothing else.

Previously resolved entries follow.
Inquiry: So what's the measured PBM E-score for this one? CCTACGAA
Reply text: -0.211

Inquiry: Can you share its PBM E-score? I mean this sequence: GTGTCGAA
Reply text: -0.00343

Inquiry: Could you tell me which PBM E-score is on file for CAAGACTG ?
Reply text: 0.175

More entries:
Inquiry: Entry ACGCATGA has what PBM E-score?
Reply text: 0.146

Inquiry: Looking for the measured PBM E-score of AGCCATTC , can you help?
Reply text: 0.0873

Inquiry: Entry under review: CAGACTCG . Reported PBM E-score?
Reply text: 0.218
